Target: T1, human fibrin (human fibrinogen coated on the plate and treated with thrombin) (human, UniProt P02671 36-629; P02675 45-491; P02679 27-437)
T1 construct: Made on the plate: coated human fibrinogen (Sigma) treated with 1.0 U/mL thrombin, CaCl2 and L-cysteine
T1 sequence (looked up) 1: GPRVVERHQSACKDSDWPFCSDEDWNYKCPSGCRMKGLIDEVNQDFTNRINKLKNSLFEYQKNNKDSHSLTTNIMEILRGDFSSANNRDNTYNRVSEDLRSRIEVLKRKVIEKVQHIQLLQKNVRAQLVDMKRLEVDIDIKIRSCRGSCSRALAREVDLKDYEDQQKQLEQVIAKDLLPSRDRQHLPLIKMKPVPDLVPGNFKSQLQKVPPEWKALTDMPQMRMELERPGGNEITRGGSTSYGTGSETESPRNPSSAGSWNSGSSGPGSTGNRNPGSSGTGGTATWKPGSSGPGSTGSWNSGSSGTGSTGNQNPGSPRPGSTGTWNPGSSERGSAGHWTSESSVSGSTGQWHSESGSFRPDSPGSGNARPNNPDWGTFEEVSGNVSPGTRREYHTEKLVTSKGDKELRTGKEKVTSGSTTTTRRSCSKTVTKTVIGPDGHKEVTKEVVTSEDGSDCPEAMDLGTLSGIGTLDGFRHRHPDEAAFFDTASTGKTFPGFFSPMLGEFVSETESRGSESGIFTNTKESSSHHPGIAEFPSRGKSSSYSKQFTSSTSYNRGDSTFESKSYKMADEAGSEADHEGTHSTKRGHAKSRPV
T1 sequence (looked up) 2: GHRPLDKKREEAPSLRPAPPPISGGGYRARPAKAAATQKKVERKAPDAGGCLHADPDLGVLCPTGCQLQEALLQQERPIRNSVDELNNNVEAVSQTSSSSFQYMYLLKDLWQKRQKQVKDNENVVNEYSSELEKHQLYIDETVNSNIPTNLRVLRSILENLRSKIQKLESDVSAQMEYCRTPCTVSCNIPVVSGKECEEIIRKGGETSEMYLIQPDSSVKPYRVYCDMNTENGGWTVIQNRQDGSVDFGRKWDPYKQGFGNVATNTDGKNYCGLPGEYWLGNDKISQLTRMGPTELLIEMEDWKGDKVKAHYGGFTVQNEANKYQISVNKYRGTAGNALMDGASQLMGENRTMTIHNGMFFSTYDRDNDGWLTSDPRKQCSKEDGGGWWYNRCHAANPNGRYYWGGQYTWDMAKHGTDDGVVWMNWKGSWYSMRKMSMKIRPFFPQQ
T1 sequence (looked up) 3: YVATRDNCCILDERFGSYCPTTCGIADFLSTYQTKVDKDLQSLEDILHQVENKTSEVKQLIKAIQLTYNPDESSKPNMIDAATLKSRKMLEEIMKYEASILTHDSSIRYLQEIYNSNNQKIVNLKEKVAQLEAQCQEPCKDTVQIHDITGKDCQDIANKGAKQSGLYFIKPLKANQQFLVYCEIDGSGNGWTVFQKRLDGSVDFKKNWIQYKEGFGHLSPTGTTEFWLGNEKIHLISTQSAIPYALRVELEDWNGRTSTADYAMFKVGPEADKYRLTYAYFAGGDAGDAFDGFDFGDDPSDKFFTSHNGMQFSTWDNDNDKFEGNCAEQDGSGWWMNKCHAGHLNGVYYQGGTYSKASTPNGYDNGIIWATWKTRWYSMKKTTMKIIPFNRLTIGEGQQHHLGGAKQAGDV
Assay: single colony ELISA, OD450 on fibrin divided by OD450 on fibrinogen
recordedMetric: OD450 ratio (fibrin over fibrinogen)
Reply briefly: the number, and no unit.

Recorded OD450 ratio (fibrin over fibrinogen), per entry:
scFv clone 7A3 (scFv, V domains shown, Tested as a secreted scFv with E-tag from the phage library) VH: EVQLVESGGGLVQPGGSLRLSCAASGFTINDWSIHWVRQAPGKGLEWVAYIGPFWGSTFYADSVKGRFTISADTSKNTAYLQMNSLRAEDTAVYYCARGYFGFDYWGQGTLVTVSS VL: DIQMTQSPSSLSASVGDRVTITCRASQDVGGWVAWYQQKPGKAPKLLISSPRSLYSGVPSRFSGSGSGTDFTLTISSLQPEDFATYYCQQYFSSPFTFGQGTKVEIKR: 20.5
phage-displayed 3D5 scFv (scFv, Tested as secreted scFv in culture supernatant, detected through its E-tag) scFv: DIQMTQSPSSLSASVGDRVTITCRASQDVSNNVAWYQQKPGKAPKLLIFWSPWLYSGVPSRFSGSGSGTDFTLTISSLQPEDFATYYCQQGWDSPVTFGQGTKVEIKRGGGGSGGGGSGGGGSEVQLVESGGGLVQPGGSLRLSCAASGFTISDFGIHWVRQAPGKGLEWVASIWPSGGYTYYADSVKGRFTISADTSKNTAYLQMNSLRAEDTAVYYCARSWFYSWYDYWGQGTLVTVSS: 377
scFv clone 8F2 (scFv, V domains shown, Tested as a secreted scFv with E-tag from the phage library) VH: EVQLVESGGGLVQPGGSLRLSCAASGFTINNYGIHWVRQAPGKGLEWVAGIWPYWGYTYYADSVKGRFTISADTSKNTAYLQMNSLRAEDTAVYYCARFDSNSYSSYSDGFMDYWGQGTLVTVSS VL: DIQMTQSPSSLSASVGDRVTITCRASQDVDNSVAWYQQKPGKAPKLLISSARSLYSGVPSRFSGSGSGTDFTLTISSLQPEDFATYYCQQYYNYPITFGQGTKVEIKR: 14.4

Now look at this one.
Read off the recorded OD450 ratio (fibrin over fibrinogen) for scFv clone 3C2 (scFv, V domains shown, Tested as a secreted scFv with E-tag from the phage library) VH: EVQLVESGGGLVQPGGSLRLSCAASGFTIGNSSIHWVRQAPGKGLEWVAGIWPYWGSTYYADSVKGRFTISADTSKNTAYLQMNSLRAEDTAVYYCARFGINNDGFMDYWGQGTLVTVSS VL: DIQMTQSPSSLSASVGDRVTITCRASQDVSGWVAWYQQKPGKAPKLLISSTGSLYSGVPSRFSGSGSGTDFTLTISSLQPEDFATYYCQQYYDFPITFGQGTKVEIKR
64.9
